Target: h5-HT2C (Homo sapiens, UniProt P28335)
Construct: expressed in transfected cells; host or cells: CHO cells
Sequence (P28335 33-458): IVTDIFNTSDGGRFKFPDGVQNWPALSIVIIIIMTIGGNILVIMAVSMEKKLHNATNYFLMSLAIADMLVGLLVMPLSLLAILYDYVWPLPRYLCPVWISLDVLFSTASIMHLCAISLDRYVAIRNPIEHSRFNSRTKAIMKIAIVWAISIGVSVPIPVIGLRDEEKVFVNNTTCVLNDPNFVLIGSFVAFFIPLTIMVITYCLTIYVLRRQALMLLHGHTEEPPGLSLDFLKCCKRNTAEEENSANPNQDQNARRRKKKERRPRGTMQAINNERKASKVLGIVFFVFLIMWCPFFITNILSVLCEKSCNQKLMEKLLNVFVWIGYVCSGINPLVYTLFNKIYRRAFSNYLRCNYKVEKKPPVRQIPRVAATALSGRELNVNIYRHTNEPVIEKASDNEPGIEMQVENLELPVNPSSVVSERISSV
Test: Functional activity, FLIPR calcium assay in CHO cells expressing h5-HT2C
Format: cell-based
Conditions: CHO; maximum fluorescent signal compared with 10 μM 5-HT (defined as 100%); read-out: h5-HT2C Relative Efficacy
Counter-ions that a name gives are not always drawn.
property.name: Emax (%)
Value expressed in %; do not type the unit.

A selection of reference data follows.
compound="CC(N)Cn1c2c(c3cc(F)c(F)cc31)CCC2 (centres unmarked) [Example 33]" unit_label=% data_value=81
compound="COc1cc2c(cc1F)c1c(n2C[C@H](C)N)CCC1 [Example 37]" unit_label=% data_value=84
compound="COc1c(F)ccc2c1c1c(n2C[C@H](C)N)CCC1 [Example 42]" unit_label=% data_value=74
compound="C[C@H](N)Cn1c2c(c3cc(F)c(Cl)cc31)CCC2 [Example 16]" unit_label=% data_value=86
compound="C[C@H](N)Cn1c2c(c3c(Cl)cccc31)CCC2 [Example 4]" unit_label=% data_value=65

Query block: Quick check: Emax of C[C@H](N)Cn1c2c(c3c(Cl)c(F)ccc31)CCC2 [Example 18] ?
Result block: 75

Query block: Data request, read-out Emax, for C[C@H](N)Cn1c2c(c3c(F)c(F)ccc31)CCC2 [Example 1, fumarate]
Result block: 77

Query block: I would be grateful if you could share the reported Emax for C[C@@H](N)Cn1c2c(c3ccccc31)CCC2 [Example 30] .
Result block: 72

Query block: # input compound: C[C@H](N)Cn1c2c(c3cc(F)ccc31)CCC2 [Example 2] ; wanted: its Emax
Result block: 85

Query block: Which Emax value belongs to C[C@H](N)Cn1c2c(c3ccccc31)CCC2 [Example 14] ?
Result block: 80

Query block: What measured Emax goes with COc1ccc2c3c(n(C[C@H](C)N)c2c1)CCC3 [Example 11] ?
Result block: 85
